Entry source: ChEMBL document CHEMBL3507680

assay: Human HepG2 cell viability assay in 384 well format; assay type: toxicity, cell-based; parameters: dose 125 nL, time 70.5 hour; concentration not given beside the values; conditions: HepG2 cells, read-out: Inhibition
Examples of compounds with documented cytotoxicity at 70.5 h follow.
Quantity Name: cytotoxicity at 70.5 h (%)

{"columns": ["Compound", "Quantity Name", "Numeric Readout"],
 "data": [
  ["Cc1cc(CN(C)C(=O)c2ccc(F)cc2Br)no1", "cytotoxicity at 70.5 h", -9.11],
  ["CC(C(=O)N1CCN(C(=O)c2ccc(F)cc2)CC1)n1ccnc1 (stereo not given)", "cytotoxicity at 70.5 h", -4.23],
  ["CCN1CCN(c2ccc(F)cc2C(C)NCc2nc(C)no2)CC1 (stereo not given)", "cytotoxicity at 70.5 h", -0.791],
  ["CCCN1CCC(NCc2cccc(CN3CCOC(C)C3)c2)CC1 (stereo not given)", "cytotoxicity at 70.5 h", 27.7],
  ["CC(NC(=O)NCc1cc(Br)cs1)c1ccccn1 (stereo not given)", "cytotoxicity at 70.5 h", -3.66]
]}

----------
experiment: Human HepG2 cell viability assay in 384 well format; assay type: toxicity, cell-based; parameters: dose 125 nL, time 70.5 hour; concentration not given beside the values; conditions: HepG2 cells, read-out: Inhibition

{"columns": ["Molecule", "cytotoxicity at 70.5 h (%)"],
 "data": [
  ["Cc1ccccc1Oc1ncccc1CNC(=O)Cn1cccnc1=O", 3.17],
  ["COc1c(C2CCCN2Cc2nc(-c3ccco3)no2)c(C)nn1C (centres undefined)", -2.62],
  ["CC(C)(C)c1cnc(CN2CCN(c3ncccn3)CC2)o1", 6.21],
  ["Cc1ncc(CNC(=O)CCOc2ccccc2)c(C2CCCN2C)n1 (centres undefined)", -8.4]
]}

----------
assay: Human HepG2 cell viability assay in 384 well format; assay type: toxicity, cell-based; set-up: dose 125 nL, time 70.5 hour; concentration not given beside the values; conditions: HepG2 cells, read-out: Inhibition

{"columns": ["Compound", "Result Units", "cytotoxicity at 70.5 h"],
 "data": [
  ["CC(NC(=O)NCCCN1CCCCCC1)c1nncn1C (stereo unspecified)", "%", 0.545],
  ["NC(=O)COc1cccc(Cn2cc(Br)cn2)c1", "%", -1.2],
  ["COc1cccc2c1OCC(C(=O)N1CCN(C3CCSCC3)CC1)C2 (stereo unspecified)", "%", -7.23],
  ["Cc1nn(CC(=O)N2CCCC2Cn2cccn2)c(C)c1Cl (stereo unspecified)", "%", 9.12],
  ["c1ccc(Cc2nnc(CN3CCOC(Cn4cccn4)C3)o2)cc1 (stereo unspecified)", "%", 0.701],
  ["Cc1noc(C2(NC(=O)c3cccnc3O)CCCCC2)n1", "%", 2.75]
]}

----------
Examples of molecules with documented cytotoxicity at 70.5 h follow.
assay: Human HepG2 cell viability assay in 384 well format; type: toxicity, cell-based; design: dose 125 nL, time 70.5 hour; concentration not given beside the values; conditions: HepG2 cells, read-out: Inhibition

{"columns": ["Molecule", "Result Units", "cytotoxicity at 70.5 h"],
 "data": [
  ["c1ccc(Cc2noc(-c3ccc(NCC4CCCOC4)nc3)n2)cc1 (stereo unspecified)", "%", -2.44],
  ["CC(C)=CCN1CCN(S(=O)(=O)c2cn(C)cn2)[C@H]2CS(=O)(=O)C[C@H]21", "%", 48.8],
  ["Cn1nc(CNC(=O)CC#N)c2c1CN(CC1CC1)CC2", "%", -3.91],
  ["Cc1cn[nH]c1C1COCCN1Cc1cscn1 (stereo unspecified)", "%", -13.2],
  ["CCOCC1CN(CCc2ccccc2)Cc2c1cnn2C (stereo unspecified)", "%", 10.7],
  ["CC(C)(C)OC(=O)N1CCCN1C(=O)c1cccc2cc[nH]c12", "%", 3.87],
  ["CCOC(=O)CCNC(=O)N1CCN(c2nc3ccccc3n2C)CC1", "%", -9.85],
  ["CS(=O)(=O)c1ccccc1NC(=O)N[C@@H]1c2ccccc2C[C@@H]1O", "%", 12.9],
  ["Cc1cccc(CCC(=O)Nc2cccnc2N2CCC(O)CC2)c1", "%", 1],
  ["NC(=O)CSc1nccc(-c2ccc3c(c2)OCO3)n1", "%", -2.27],
  ["O=C(O)COc1ccc(Cl)cc1CN1CCC2(CCNCC2)CC1", "%", -11.2],
  ["Cn1cnnc1C1CCCN(C(=O)NCCc2ccccc2F)C1 (stereo unspecified)", "%", -11.6],
  ["CNCC(=O)N1CCC(c2cccc(Oc3ccccc3)n2)CC1", "%", -7.76],
  ["CCCC(=O)N1CC[C@@H]2[C@H](CC1)N(Cc1cccnc1)CCS2(=O)=O", "%", 4.18],
  ["O=C(c1cnccn1)N1CCCC(Cc2ccccn2)C1 (stereo unspecified)", "%", 4.02],
  ["COc1ccc(NC(=O)C2CCCO2)cc1OCc1cccnc1 (stereo unspecified)", "%", 49.9]
]}

----------
Examples of compounds with documented cytotoxicity at 70.5 h follow.
assay: Human HepG2 cell viability assay in 384 well format; format: toxicity, cell-based; parameters: dose 125 nL, time 70.5 hour; concentration not given beside the values; details: HepG2 cells, read-out: Inhibition

{"columns": ["Compound", "cytotoxicity at 70.5 h / %"],
 "data": [
  ["N#CCCN(CC(=O)Nc1ccc(Br)cc1Cl)Cc1cccnc1", -1.52],
  ["O=C1NCC2(CCCN(C(=O)Nc3ccc4occc4c3)CC2)O1 (stereo not given)", -1.24],
  ["CCc1nc(C(=O)N(CC)CC(=O)Nc2cc(Cl)ccc2C)c[nH]1", -4.72],
  ["CC(C)CCN1CCC2(CC1)NCc1ccccc1NC2=O", -7.94],
  ["Cc1cccc(CN2CCC(NS(C)(=O)=O)CC2)n1", -8.65],
  ["CC(C)n1c2ccccc2c2c1cc(C(=O)N(C)C)n2C(=O)N(C)C", -0.266],
  ["Cc1ccc(N2CCCN(C(=O)c3cc(CC(C)C)n[nH]3)CC2)nn1", 12.9],
  ["CS(=O)(=O)NCc1cc(-c2cc(F)cc(F)c2)nc(N2CCOCC2)n1", -13.9],
  ["CC(C)C(C#N)N1CCN(C(=O)c2cc(-c3ccccn3)no2)CC1 (stereo not given)", 3.13],
  ["Cc1ccc(NC2CCN(C(=O)CCOCC(F)(F)F)CC2)nn1", -2.83],
  ["Cc1cc(NS(=O)(=O)c2cccs2)ccc1-n1cccc1C(=O)O", -1.78],
  ["CC(C)OCCCNC(=O)NCc1cccc(-n2ccnc2)c1", -6.74],
  ["Cc1cc(C(=O)NC(C)c2nnn[nH]2)c2ccc(C)c(C)c2n1 (stereo not given)", 34.8],
  ["NC(=O)CNC(c1ccccc1)c1ccccc1", 17.2],
  ["CCn1c(=O)n(Cc2nc(C3CC3)no2)c2ccccc21", 23.4],
  ["Cc1noc(C(C)Nc2ccc3oc(C)nc3c2)n1 (stereo not given)", 11.9],
  ["CN(C(=O)CSc1ccccn1)C1CCCN(CCc2ccccc2)C1 (stereo not given)", -7.26],
  ["Cn1nc(CN2CCCCC2)c2c1CN(C(=O)c1cccc(C#N)c1)C2", 15.7],
  ["COCCN(C)C[C@@H]1CN(c2nc(C)cc(C)n2)C[C@@H]1CO", 1.4],
  ["Cc1ccc(C(CNC(=O)Nc2cn[nH]c2)N2CCOCC2)o1 (stereo not given)", -1.26],
  ["O=C(CNc1cc(-c2ccccc2)nc2ccnn12)NC1CC1", -0.964],
  ["COCC1CC2(CCN(C(=O)c3ccc(OC)c(Cl)c3)CC2)CO1 (stereo not given)", -8.41],
  ["COc1ccc(CCC2CCCCN2)cc1 (stereo not given)", 24.2],
  ["COc1cccc2c1N(S(=O)(=O)c1cc(C(=O)O)cs1)CCC2", -6.55],
  ["Cn1nnc2c(N3CC(C(=O)NCc4cccs4)C3)ncnc21", -1.73],
  ["CC(=O)OC1CN(c2nc3c(Cl)cccc3s2)C1", -9.84],
  ["COc1cccc(NC(C(N)=O)c2ccc(Br)cc2)c1 (stereo not given)", -10.7],
  ["C1CCN(c2nc(N3CCOCC3)nc3[nH]nnc23)CC1", -5.52],
  ["CCC1CN(Cc2nnc(C3CC3)o2)CCN1CCOC (stereo not given)", 0.024],
  ["OCCCN1CCc2[nH]nc(C(c3ccccc3)c3ccccc3)c2C1", -3.77],
  ["c1ccc(CCN2CCOC(CNc3cccnn3)C2)nc1 (stereo not given)", -12.5],
  ["CCN1CCN(Cc2nc(Cc3ccccc3)n[nH]2)CC1", -5.11],
  ["COc1ccc(F)cc1S(=O)(=O)NCC(c1cccn1C)N(C)C (stereo not given)", -1.76],
  ["O=C(c1ccccc1F)N(CCCO)S(=O)(=O)c1cccs1", -9.23],
  ["Cc1nc(CC(=O)N(CCN2CCOCC2)Cc2ccco2)c(C)s1", -4.1]
]}
